The values you see were collected from patent US10398751B2.

test: Solubility screening of veldoreotide acetate (10 mg, incremental volumes of medium, USP definition); type: physicochemical; conditions: 10% EtOH (95%) in olive oil (or cottonseed oil), 0.1 ml Freely soluble (0.1 g/ml), 10 mg in 10% EtOH (95%) in olive oil (or cottonseed oil)
measureName: solubility

IN: Which solubility is listed for C[C@@H](O)[C@@H]1NC(=O)[C@H](CCCCN)NC(=O)[C@@H](Cc2c[nH]c3ccccc23)NC(=O)[C@H](Cc2c[nH]c3ccccc23)NC(=O)[C@H](Cc2ccccc2)NC(=O)CCCNC(=O)CCCN(CC(N)=O)C(=O)[C@H](Cc2ccccc2)NC1=O [Veldoreotide Acetate] ?
OUT: < 100 mg/mL

###

test: Solubility screening of veldoreotide acetate (10 mg, incremental volumes of medium, USP definition); type: physicochemical; details: Acetic acid 1% (glacial), 10 mg in Acetic acid 1% (glacial); read-out: 0.5 ml Soluble (0.02 g/ml; 20 mg/ml)
measureName: solubility

IN: Which solubility is listed for C[C@@H](O)[C@@H]1NC(=O)[C@H](CCCCN)NC(=O)[C@@H](Cc2c[nH]c3ccccc23)NC(=O)[C@H](Cc2c[nH]c3ccccc23)NC(=O)[C@H](Cc2ccccc2)NC(=O)CCCNC(=O)CCCN(CC(N)=O)C(=O)[C@H](Cc2ccccc2)NC1=O [Veldoreotide Acetate] ?
OUT: > 20 mg/mL

###

assay: Solubility screening of veldoreotide acetate (10 mg, incremental volumes of medium, USP definition); type: physicochemical; details: Acetate saline 100 mM, Mannitol 250 mM, pH 4.3, 10 mg in Acetate saline 100 mM, Mannitol 250 mM (pH 4.3); read-out: 0.01 ml Very soluble (1 g/ml)
measureName: solubility

IN: Which solubility is listed for C[C@@H](O)[C@@H]1NC(=O)[C@H](CCCCN)NC(=O)[C@@H](Cc2c[nH]c3ccccc23)NC(=O)[C@H](Cc2c[nH]c3ccccc23)NC(=O)[C@H](Cc2ccccc2)NC(=O)CCCNC(=O)CCCN(CC(N)=O)C(=O)[C@H](Cc2ccccc2)NC1=O [Veldoreotide Acetate] ?
OUT: < 1000 mg/mL

###

test: Solubility screening of veldoreotide acetate (10 mg, incremental volumes of medium, USP definition); format: physicochemical; conditions: Ethanol (USP), 10 ml Slightly soluble (0.001 g/ml; 1 mg/ml), 10 mg in Ethanol (USP)
measureName: solubility

IN: Which solubility is listed for C[C@@H](O)[C@@H]1NC(=O)[C@H](CCCCN)NC(=O)[C@@H](Cc2c[nH]c3ccccc23)NC(=O)[C@H](Cc2c[nH]c3ccccc23)NC(=O)[C@H](Cc2ccccc2)NC(=O)CCCNC(=O)CCCN(CC(N)=O)C(=O)[C@H](Cc2ccccc2)NC1=O [Veldoreotide Acetate] ?
OUT: > 1000 µg/mL

###

assay: Solubility screening of veldoreotide acetate (10 mg, incremental volumes of medium, USP definition); assay type: physicochemical; conditions: Dextrose 5% (USP), 10 mg in Dextrose 5% (USP); read-out: 1 ml Sparingly soluble (0.01 g/ml; 10 mg/ml)
measureName: solubility

IN: Which solubility is listed for C[C@@H](O)[C@@H]1NC(=O)[C@H](CCCCN)NC(=O)[C@@H](Cc2c[nH]c3ccccc23)NC(=O)[C@H](Cc2c[nH]c3ccccc23)NC(=O)[C@H](Cc2ccccc2)NC(=O)CCCNC(=O)CCCN(CC(N)=O)C(=O)[C@H](Cc2ccccc2)NC1=O [Veldoreotide Acetate] ?
OUT: > 10000 µg/mL

###

test: Solubility screening of veldoreotide acetate (10 mg, incremental volumes of medium, USP definition); assay type: physicochemical; conditions: 0.1N HCl, 0.1 ml Freely soluble (0.1 g/ml), 10 mg in 0.1N HCL
measureName: solubility

IN: Which solubility is listed for C[C@@H](O)[C@@H]1NC(=O)[C@H](CCCCN)NC(=O)[C@@H](Cc2c[nH]c3ccccc23)NC(=O)[C@H](Cc2c[nH]c3ccccc23)NC(=O)[C@H](Cc2ccccc2)NC(=O)CCCNC(=O)CCCN(CC(N)=O)C(=O)[C@H](Cc2ccccc2)NC1=O [Veldoreotide Acetate] ?
OUT: > 100 mg/mL

###

assay: Solubility screening of veldoreotide acetate (10 mg, incremental volumes of medium, USP definition); format: physicochemical; details: Propylene glycol, 10 mg in Propylene glycol; read-out: 1 ml Sparingly soluble (0.01 g/ml; 10 mg/ml)
measureName: solubility

IN: Which solubility is listed for C[C@@H](O)[C@@H]1NC(=O)[C@H](CCCCN)NC(=O)[C@@H](Cc2c[nH]c3ccccc23)NC(=O)[C@H](Cc2c[nH]c3ccccc23)NC(=O)[C@H](Cc2ccccc2)NC(=O)CCCNC(=O)CCCN(CC(N)=O)C(=O)[C@H](Cc2ccccc2)NC1=O [Veldoreotide Acetate] ?
OUT: > 10000 µg/mL

###

experiment: Solubility screening of veldoreotide acetate (10 mg, incremental volumes of medium, USP definition); format: physicochemical; conditions: 2% propylene glycol in olive oil (or cottonseed oil), 10 mg in 2% Propylene glycol in olive oil (or cottonseed oil); read-out: 0.01 ml Very soluble (1 g/ml)
measureName: solubility

IN: Which solubility is listed for C[C@@H](O)[C@@H]1NC(=O)[C@H](CCCCN)NC(=O)[C@@H](Cc2c[nH]c3ccccc23)NC(=O)[C@H](Cc2c[nH]c3ccccc23)NC(=O)[C@H](Cc2ccccc2)NC(=O)CCCNC(=O)CCCN(CC(N)=O)C(=O)[C@H](Cc2ccccc2)NC1=O [Veldoreotide Acetate] ?
OUT: < 1000 mg/mL

###

experiment: Solubility screening of veldoreotide acetate (10 mg, incremental volumes of medium, USP definition); format: physicochemical; conditions: Lactic acid 37 mM, Mannitol 250 mM, pH 4.3, 10 ml Slightly soluble (0.001 g/ml; 1 mg/ml), 10 mg in Lactic acid 37 mM, Mannitol 250 mM (pH 4.3)
measureName: solubility

IN: Which solubility is listed for C[C@@H](O)[C@@H]1NC(=O)[C@H](CCCCN)NC(=O)[C@@H](Cc2c[nH]c3ccccc23)NC(=O)[C@H](Cc2c[nH]c3ccccc23)NC(=O)[C@H](Cc2ccccc2)NC(=O)CCCNC(=O)CCCN(CC(N)=O)C(=O)[C@H](Cc2ccccc2)NC1=O [Veldoreotide Acetate] ?
OUT: > 1000 µg/mL
